- testedSystem: dopaminergic receptors D2 (Homo sapiens, UniProt P14416)
- Sequence (P14416 whole entry): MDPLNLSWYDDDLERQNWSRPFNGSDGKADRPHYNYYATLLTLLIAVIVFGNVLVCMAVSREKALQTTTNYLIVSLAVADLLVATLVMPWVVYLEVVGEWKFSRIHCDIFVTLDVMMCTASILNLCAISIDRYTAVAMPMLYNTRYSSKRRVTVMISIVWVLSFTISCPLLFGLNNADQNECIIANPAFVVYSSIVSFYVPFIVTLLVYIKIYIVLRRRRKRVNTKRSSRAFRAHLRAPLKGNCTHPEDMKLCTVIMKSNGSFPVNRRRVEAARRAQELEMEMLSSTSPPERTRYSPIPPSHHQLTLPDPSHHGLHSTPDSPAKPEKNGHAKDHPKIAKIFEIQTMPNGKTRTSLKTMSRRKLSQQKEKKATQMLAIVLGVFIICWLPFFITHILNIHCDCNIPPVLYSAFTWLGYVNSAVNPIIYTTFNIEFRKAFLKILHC
- procedureDetails: Radioligand binding assay, dopaminergic D2 receptors
- testParameters: binding assay, test compound 1×10^−6 M
- From the text: The specific ligand binding to the receptors is defined as the difference between the total binding and the non-specific binding determined in the presence of the excess of unlabelled ligand. The results are expressed as a percent of control specific binding ((measured specific binding/control specific binding)×100) and as a percent inhibition of control specific binding (100−((measured specific binding/control specific binding)×100)) obtained in the presence of the test compounds. […]
Give fulfilled when the value for inhibition at 1 µM is at least 90%. Give not fulfilled when it is less.

See these solved cases before continuing.
Cc1c(S(=O)(=O)NC2CCN(CCCc3noc4cc(F)ccc34)CC2)sc2ccc(Cl)cc12 ... not fulfilled
O=S(=O)(NC1CCN(CCCc2noc3cc(F)ccc23)C1)c1ccc2c(c1)OCC2 (centres unmarked) ... fulfilled
O=S(=O)(NCC1CN(CCOc2cccc3c2OCCO3)C1)c1ccc(Cl)cc1 ... not fulfilled
CC(C)(C)c1ccc(S(=O)(=O)NCC2CN(CCCc3noc4cc(F)ccc34)C2)cc1 ... not fulfilled
O=S(=O)(NC1CCN(CCOc2nsc3ccccc23)C1)c1ccc2ccccc2c1 (centres unmarked) ... not fulfilled

Task: Textbook exercise: given the entry O=S(=O)(NCC1CCN(CCOc2cccc3c2OCCO3)C1)c1ccc(Br)cc1 (centres unmarked) , state whether its inhibition at 1 µM is greater than or equal to 90%.
Output: not fulfilled

Task: Test whether the compound `Cc1c(S(=O)(=O)NCC2CN(CCOc3cccc4c3OCCO4)C2)sc2ccc(Cl)cc12` records inhibition at 1 µM of 90% or higher.
Output: not fulfilled

Task: Form field: inhibition at 1 µM at least 90%? Entry: O=S(=O)(NCC1CCN(CCOc2cccc3ccccc23)C1)c1ccc(F)c(F)c1 (centres unmarked)
Output: not fulfilled

Task: Answer whether inhibition at 1 µM of `Cn1ccc2c(S(=O)(=O)NCC3CN(CCOc4cccc5ccccc45)C3)cccc21` is greater than or equal to 90%.
Output: not fulfilled
